- assay.comment: endothelial E-selectin expression blockers – imaging, HUVEC, immunofluorescence, MLSMR starter and 10KST1 sets, primary screen (AID 487);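 further: 100% = median nuclei count of all wells on the same plate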
- condition.notes: HUVEC TNFalpha-induced E-selectin immunofluorescence imaging, at 2 µM; measured here: cell number, toxicity
Reported values of nuclei count for individual entries
test.readout: nuclei count (%)

INSERT INTO results (molecule, u, endpoint_value) VALUES
  ('Cc1nnc(NC(=O)CCC(=O)N2CCC(C)CC2)s1', '%', 120),
  ('CCOc1ccc(N(CC(=O)Nc2ccc(F)c(F)c2)S(=O)(=O)c2c(C)noc2C)cc1', '%', 109),
  ('CCn1c(SCC(=O)N2c3ccccc3CCc3ccccc32)nc2c1c(=O)n(C)c(=O)n2C', '%', 131),
  ('CCCCOCCCNC(=O)COc1ccccc1', '%', 114),
  ('O=C(Nc1ccc2c(c1)OCCO2)NC1CCCCC1', '%', 102),
  ('Cc1ccc(Cn2ccc(NC(=O)c3noc4c3CCCC4)n2)cc1', '%', 117),
  ('Cc1cc(C)n(C(C)n2nc(C)cc2C)n1', '%', 68),
  ('N#Cc1nc(COc2ccccc2Cl)oc1N1CCCCCC1', '%', 102),
  ('Cc1cnc(C(=O)Nc2ccccc2-n2cccc2)cn1', '%', 115),
  ('O=S(=O)(c1ccc(Br)s1)N1CCCCC1', '%', 106),
  ('Cc1csc(NC(=O)Nc2cccc(Cl)c2)n1', '%', 113),
  ('O=C(Nc1ccccc1C(=O)O)c1cccc(NC(=O)c2ccc(Br)o2)c1', '%', 161),
  ('CC(=O)NC1(C(F)(F)F)NC(=O)N(CC(C)C)C1=O (configuration not stated)', '%', 101),
  ('Cc1cc(=O)n2[nH]c(-c3ccc(Cl)cc3)cc2n1', '%', 69.3),
  ('Cn1c(C(=O)OC(C(=O)NC2CCCC2)c2cccnc2)cc2sccc21 (configuration not stated)', '%', 102),
  ('CCOC(=O)N1CCN(C(=O)c2ccc(CS(=O)(=O)c3ccc(OC)cc3)o2)CC1', '%', 133),
  ('COc1ccc(NC(=O)c2oc3ccc(S(=O)(=O)N4CCC5(CC4)OCCO5)cc3c2C)cc1', '%', 121),
  ('COC(=O)c1ccc(NC(=O)C2C3CCC(C3)C2C(=O)O)cc1 (configuration not stated)', '%', 103),
  ('Cc1cc(C(=O)CSc2nnc(-c3ccccc3)n2C)c(C)n1C', '%', 107),
  ('Cc1ccc(Cn2c(C(=O)NCCCN3CCOCC3)cc3sccc32)cc1', '%', 118),
  ('O=C(CSc1nnc(Cc2ccccc2)n1C1CCCCC1)N1CCOCC1', '%', 113),
  ('O=C1C2C3C=CC(C3=C3CCCCC3)C2C(=O)N1c1ccccc1 (configuration not stated)', '%', 103),
  ('O=C(CCC(=O)OCC(=O)c1ccccc1)NC1CCCCC1', '%', 112),
  ('CCOc1ccccc1C1CC(=O)Nc2cc3c(cc21)OCO3 (configuration not stated)', '%', 98.7),
  ('CCC(=O)Oc1ccc2c(C)cc(=O)oc2c1C', '%', 108),
  ('c1ccc(CSCc2cn3ccsc3n2)cc1', '%', 131),
  ('CN(C)C=Nc1nonc1N', '%', 99.3),
  ('CC12CCC(C(=O)N3CCN(C(=O)C45CCC(C)(C(=O)O4)C5(C)C)CC3)(OC1=O)C2(C)C', '%', 140),
  ('CC(C)(C)NC(=O)COC(=O)c1snc(C(=O)NC2CCCCC2)c1N', '%', 96.2),
  ('CCCCCC1NC(=O)NC1CCCCCC(=O)O (configuration not stated)', '%', 123),
  ('COc1nc(-c2ccc(Cl)cc2)ccc1-c1noc(-c2ccncc2)n1', '%', 114),
  ('COCCn1nnnc1C(c1ccc(OC)cc1)N1CCN(c2ccccc2F)CC1 (configuration not stated)', '%', 104),
  ('c1cc(C(c2nnnn2C2CCCC2)N2CCOCC2)ccn1 (configuration not stated)', '%', 97.3),
  ('Cc1c(C#N)c(N)c(C(=O)c2ccccc2)n1Cc1ccccc1', '%', 117),
  ('Cc1nnc(SCC(=O)NCc2ccc3c(c2)OCO3)s1', '%', 106),
  ('O=C(CN1C(=O)COCC1=O)N1CCOCC1', '%', 112),
  ('C=CCn1c(COc2cccc(C)c2)nnc1SCC(=O)NC(=O)NCc1ccco1', '%', 113),
  ('COc1ccccc1N(CC(=O)NC1CCCC1)C(=O)c1csnn1', '%', 126),
  ('CCOC(=O)C1=C(N)OC2=C(C(=O)CC(C)(C)C2)C1c1ccoc1 (configuration not stated)', '%', 110),
  ('Cc1[nH]nc(N=CC2=C(O)CC(C)(C)CC2=O)c1-c1ccc(Cl)cc1', '%', 128),
  ('CCN1CCN(C(=O)c2cc3c(=O)n(C)c4ccccc4c3n2C)CC1', '%', 126),
  ('Cc1cc(C)nc(NS(=O)(=O)c2ccc(NC(=O)Cn3c(=O)oc4ccccc43)cc2)n1', '%', 122),
  ('C#CC1(O)CC(C)N(C)C(C)C1 (configuration not stated)', '%', 186),
  ('CC(=O)Nc1ccccc1-c1nc2ccc(C(=O)N3CCN(c4ccccc4)CC3)cc2[nH]c1=O', '%', 110),
  ('CCOC(=O)c1c(C)[nH]c(C=Nc2ccccc2)c1O', '%', 103),
  ('CCC(C)(C)NC(=O)C(OC(=O)c1ccco1)c1ccccc1OC (configuration not stated)', '%', 107),
  ('CCOc1cc(NC(=O)c2ccco2)c(OCC)cc1NC(=O)COc1ccccc1C', '%', 129);

----------
- target.of.assay: Voltage-gated potassium channel subunit beta-2 (Rattus norvegicus) (UniProt P62483)
- Sequence (P62483 whole entry, looked up): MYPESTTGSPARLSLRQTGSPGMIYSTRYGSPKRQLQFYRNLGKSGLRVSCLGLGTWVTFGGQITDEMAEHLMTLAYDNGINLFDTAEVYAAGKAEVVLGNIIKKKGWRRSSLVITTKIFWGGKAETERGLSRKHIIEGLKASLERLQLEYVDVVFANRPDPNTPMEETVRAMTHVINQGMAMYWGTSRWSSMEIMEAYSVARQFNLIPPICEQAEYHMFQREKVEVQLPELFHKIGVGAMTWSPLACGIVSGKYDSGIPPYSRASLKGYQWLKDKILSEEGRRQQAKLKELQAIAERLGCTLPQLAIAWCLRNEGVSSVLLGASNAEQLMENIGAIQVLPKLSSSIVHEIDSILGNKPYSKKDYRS
- assay.comment: inhibitors of rat Kvbeta2 reductase activity – biochemical, NADPH fluorescence, primary screen (AID 622);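 further: slope of raw intensity against log time taken from 70 to 1610 s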
- condition.notes: recombinant KvBeta, 4-cyanobenzaldehyde reduction, at 10 µM, stronger effect = higher value
Param threshold (-0.4) applies to fluorescence slope; output Fulfilled when value >= threshold, Not fulfilled when value < threshold.

INSERT INTO assay_data (compound, cat) VALUES
  ('O=C(NCCN1CCOCC1)C1CCC(=O)N1Cc1ccccc1Cl (configuration not stated)', 'Not fulfilled'),
  ('COc1ccc(S(=O)(=O)NCC(c2cccnc2)N2CCN(C)CC2)cc1C (configuration not stated)', 'Not fulfilled'),
  ('Cc1cccc2cc(CN(Cc3nnnn3Cc3ccco3)C3CCCC3)c3nnnn3c12', 'Not fulfilled'),
  ('CCCOc1cccc(NC(=O)c2c(-c3ccccc3)noc2C)c1', 'Not fulfilled'),
  ('CN(c1ccccc1C(=O)NCC1CCCO1)S(C)(=O)=O (configuration not stated)', 'Not fulfilled'),
  ('COc1ccc(C2c3c(-c4ccccc4O)n[nH]c3C(=O)N2CCc2ccc(OC)c(OC)c2)cc1 (configuration not stated)', 'Not fulfilled'),
  ('CCn1c(Cc2ccccc2)nnc1SCC(=O)Nc1nc2ccccc2s1', 'Not fulfilled'),
  ('COc1ccc(-c2nnc(SC(C)C(=O)Nc3nccs3)n2-c2ccccc2)cc1OC (configuration not stated)', 'Not fulfilled'),
  ('CC(C)(C)NS(=O)(=O)c1ccc(CCC(=O)O)cc1', 'Not fulfilled'),
  ('Cc1nc2ccc(NC(=O)N3CCSCC3)cc2s1', 'Not fulfilled'),
  ('O=C(NCc1ccco1)c1c2c(nc3ccccc13)CCC2', 'Not fulfilled'),
  ('Cc1cccc(NC(=O)c2cnc3sccn3c2=O)n1', 'Not fulfilled'),
  ('COc1ccc(NC(=O)CSc2ccccn2)cc1OC', 'Fulfilled'),
  ('COc1ccc(NC(=O)CC2Oc3ccccc3NC2=O)cc1 (configuration not stated)', 'Not fulfilled'),
  ('Nc1ccc(S(=O)(=O)c2cccc(N)c2)cc1', 'Not fulfilled'),
  ('COCCCNC(=O)C(Cc1ccccc1)NS(=O)(=O)c1ccc2c(c1)c(=O)n(C)c(=O)n2C (configuration not stated)', 'Not fulfilled'),
  ('O=C(Oc1ccc(Cl)cc1N1C(=O)CCC1=O)c1ccco1', 'Not fulfilled'),
  ('Cc1ccc(C)c(-n2nnnc2SCC(=O)NCCC2=CCCCC2)c1', 'Not fulfilled'),
  ('COCCCNC(=O)CC1Oc2ccccc2NC1=O (configuration not stated)', 'Not fulfilled'),
  ('Cc1nc2nc(Cc3ccccc3)[nH]n2c(=O)c1Cc1ccccc1', 'Not fulfilled'),
  ('CCOc1ccc(OCC)c(NS(=O)(=O)c2ccc3c(c2)n(C)c(=O)c(=O)n3C)c1', 'Not fulfilled'),
  ('COc1ccc2c(=O)c3c(=O)n(Cc4ccco4)c(-c4cc(OC)c(OC)c(OC)c4)nc3oc2c1', 'Not fulfilled'),
  ('N#Cc1c(N)oc(-c2cccs2)c1-c1cccs1', 'Fulfilled'),
  ('CCOc1ccc2ccccc2c1/C=N/n1cncn1', 'Not fulfilled'),
  ('O=C(Nc1ccccc1-c1nc2ccccc2o1)c1ccc2c(c1)OCCO2', 'Fulfilled'),
  ('COc1ccc2c(c1)CCc1cc(C(=O)N3CCN(c4ccc(N5CCOCC5)nn4)CC3)sc1-2', 'Not fulfilled'),
  ('CS(=O)(=O)N(CC(=O)NC1CC1)c1cccc(F)c1', 'Not fulfilled'),
  ('Cc1cc(-c2ccccc2)nc2cc(C(=O)NCCCn3ccnc3)nn12', 'Fulfilled'),
  ('O=C(CN1CCSCC1)N1CCc2[nH]c3ccc(Br)cc3c2C1', 'Fulfilled'),
  ('O=C(Nc1ccc2c(c1)OCCO2)NC1CCCCC1', 'Not fulfilled'),
  ('CCOC(=O)CNc1ccc2c(c1)OCO2', 'Not fulfilled'),
  ('COCCOC(=O)C1=C(C)OC(N)=C(C#N)C1c1ccc2c(c1)OCO2 (configuration not stated)', 'Not fulfilled'),
  ('CN(C)C(=O)CN(C)S(=O)(=O)c1ccc(Cl)cc1', 'Not fulfilled'),
  ('COc1ccc(OC)c(NC(=O)CS(=O)(=O)c2ccccc2)c1', 'Not fulfilled'),
  ('COc1ccc(-n2nnnc2-c2cccc(OC)c2)cc1', 'Fulfilled'),
  ('O=C(Nc1ccc2c(c1)OCCO2)C1CCN(C(=O)c2ccc(F)cc2)CC1', 'Fulfilled'),
  ('COCCCNC(=O)C1CCCN(C(=O)Nc2ccc(OC)cc2)C1 (configuration not stated)', 'Fulfilled'),
  ('O=C(CCSc1ccccc1)N1CCOCC1', 'Not fulfilled'),
  ('O=C(C(Cc1ccccc1)n1cccc1)N1CCCCCC1 (configuration not stated)', 'Not fulfilled'),
  ('O=C(O)c1ccc(NC(=O)c2cccs2)cc1', 'Fulfilled'),
  ('COc1ccc(C(C)NC(=O)c2ccoc2C)cc1OC (configuration not stated)', 'Fulfilled'),
  ('c1ccc2c(c1)nc(-c1ccncc1)n1nnnc21', 'Fulfilled');
